Test: reduced mouse 2C T cell binding to pMHC/ICAM-1 vesicles – MLPCN validation set, flow cytometry, LFA-1/ICAM-1 modulator project, pilot screen (AID 2523);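 note: mean PE anti-B7-1 fluorescence of CD8+ cells relative to row control; 100% = QL9-loaded vesicles with DMSO vehicle in the same plate row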
Details: 2C mouse CD8+ T cells, at 7 µM, hits give low values
property: vesicle binding response (%)
Please reply with the bare figure in % and do not write the unit itself.

[ask] Return vesicle binding response for the following compound: COc1ccc(NC(=S)N2CCN(CCN3C(=O)c4cccc5cccc(c45)C3=O)CC2)cc1
[reply] 31.6

[ask] Quickly give me recorded vesicle binding response for CC1=NN(C(=O)c2ccc(Br)cc2)C(O)(c2ccccc2)C1 (stereo unspecified)
[reply] 165

[ask] Consider the compound CC(=O)NC(Cc1ccccc1)C(=O)OCC(=O)c1ccccc1 (stereo unspecified) . State its measured vesicle binding response.
[reply] 144

[ask] Please look at this compound and report its vesicle binding response: Cc1ccc(-n2cc(CNCCN3CCOC3=O)c(-c3ccc(F)cc3)n2)cc1
[reply] 129

[ask] Given the compound O=C1CCCN1C(=O)CCC(=O)N1CCCC1=O , write its reported vesicle binding response.
[reply] 235

[ask] Determine its reported vesicle binding response: Cn1nc(-c2ccc(Cl)cc2)nc2c(=O)n(C)c(=O)nc1-2
[reply] 215

[ask] Item COCC(C)NC(=O)c1ccc(CN2CCc3ccccc3C2)cc1 (stereo unspecified) : provide vesicle binding response
[reply] 257

[ask] Read the entry Cn1c(=O)[nH]c(=O)c2c1nc(NCc1ccco1)n2CCCc1ccccc1 and write its reported vesicle binding response.
[reply] 36.6

[ask] Give reported vesicle binding response value for Cc1ccc(S(=O)(=O)Oc2ccccc2/C=N/N=C(N)N)cc1
[reply] 172

[ask] Determine from records and report vesicle binding response for O=C(N/C(=C/C=C\c1ccccc1)C(=O)N1CCOCC1)c1ccc(Br)cc1
[reply] 185

[ask] For the compound COc1ccc2c(CC(=O)NCC3CCC(C(=O)O)CC3)cc(=O)oc2c1 (stereo unspecified) , give its reported vesicle binding response.
[reply] 116
